- assay_protocol: Displacement of [125I]-[D-Tyr6,beta-Ala11,Phe13,Nle14]-Bombesin(6-14) from rhesus monkey BRS3
- Design: species or system Macaca mulatta
assay_metric: IC50 (nM)
Write the number in nM without appending the unit.

Recorded result, Cc1ccc2c(c1C)N(S(=O)(=O)c1ccc(C(C)(C)C)cc1)Cc1ccc(C(F)(F)F)nc1N2 , IC50: 3

---

- System: Rattus norvegicus
- assay_protocol: Dose normalized AUC in Sprague-Dawley rat at 4 mg/kg, po
- Format: ADME, organism-based
- Parameters: dose 4 mg/kg, route oral
- protocol_conditions: in vivo
Each item that follows carries a reported AUC/dose.
Write the number in µM·kg·h/mg without appending the unit.

Recorded result, Cc1ccc2c(c1C)N(S(=O)(=O)c1ccc(C(C)C)cc1)Cc1ccc(C(F)(F)F)nc1N2 , AUC/dose: 0.24

---

- study_system: Bombesin receptor subtype-3 (Homo sapiens, UniProt P32247)
- Sequence (P32247 whole entry): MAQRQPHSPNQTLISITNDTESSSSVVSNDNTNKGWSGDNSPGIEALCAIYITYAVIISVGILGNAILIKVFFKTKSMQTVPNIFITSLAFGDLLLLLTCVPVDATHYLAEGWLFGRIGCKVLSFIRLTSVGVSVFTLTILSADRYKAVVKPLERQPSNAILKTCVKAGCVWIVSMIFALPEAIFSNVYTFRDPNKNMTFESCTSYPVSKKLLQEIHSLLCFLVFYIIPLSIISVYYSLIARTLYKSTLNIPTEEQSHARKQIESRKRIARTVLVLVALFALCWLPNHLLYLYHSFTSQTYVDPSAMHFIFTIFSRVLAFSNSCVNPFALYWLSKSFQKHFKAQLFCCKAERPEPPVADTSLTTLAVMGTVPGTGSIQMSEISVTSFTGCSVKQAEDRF
- assay_protocol: Displacement of [125I]-[D-Tyr6,beta-Ala11,Phe13,Nle14]-Bombesin(6-14) from human BRS3 expressed in CHO cells expressing NFAT after 2 hrs by liquid scintillation counting
assay_metric: log10 of IC50 (log10 of the value in nM)
Base-10 log of IC50, unit nM.

Recorded result, Cc1ccc2c(c1C)N(S(=O)(=O)c1ccc(C(C)(C)C#N)cc1)Cc1ccc(C(F)(F)F)nc1N2 , log10 of IC50: 0.76

Recorded result, Cc1ccc2c(n1)Nc1ccc(C)c(C)c1N(S(=O)(=O)c1ccc(C(C)(C)C)cc1)C2 , log10 of IC50: 1.00

Recorded result, Cc1ccc2c(c1C)N(S(=O)(=O)c1ccc(C(C)C)cc1)Cc1ccc(C(F)(F)F)nc1N2 , log10 of IC50: 0.20

Recorded result, CC(C)(C)c1ccc(S(=O)(=O)N2Cc3ccc(C(F)(F)F)nc3Nc3ccc4ncccc4c32)cc1 , log10 of IC50: -0.15

Recorded result, Cc1ccc2c(c1C)N(S(=O)(=O)c1ccc(C(F)(F)F)cc1)Cc1ccc(C(F)(F)F)nc1N2 , log10 of IC50: 0.83

Recorded result, Cc1ccc2c(c1C)N(S(=O)(=O)c1ccc(S(C)(=O)=O)cc1)Cc1ccc(C(F)(F)F)nc1N2 , log10 of IC50: 1.86

Recorded result, CC(C)(C)c1ccc(S(=O)(=O)N2Cc3ccc(C(F)(F)F)nc3Nc3cccc(Cl)c32)cc1 , log10 of IC50: 0.51

Recorded result, Cc1cccc2c1N(S(=O)(=O)c1ccc(C(C)(C)C)cc1)Cc1ccc(C(F)(F)F)nc1N2 , log10 of IC50: -0.05

---

Each item that follows carries a reported clearance.
- assay_protocol: Plasma clearance in Sprague-Dawley rat at 1 mg/kg, iv
- Format: ADME, organism-based
- Parameters: dose 1 mg/kg, route intravenous
Write the number in L/h/kg without appending the unit.

The examples below pair each entry with its known result.
Cc1ccc2c(c1C)N(S(=O)(=O)c1ccc(C(C)(C)C)cc1)Cc1cccnc1N2 = 9.84
Cc1ccc2c(c1C)N(S(=O)(=O)c1ccc(C(C)(C)C)cc1)Cc1ccc(C(F)(F)F)nc1N2 = 1.74
Cc1cccc2c1N(S(=O)(=O)c1ccc(C(C)(C)C)cc1)Cc1ccc(C(F)(F)F)nc1N2 = 2.28
Cc1ccc2c(c1C)N(S(=O)(=O)c1ccc(C(C)C)cc1)Cc1ccc(C(F)(F)F)nc1N2 = 0.96

Recorded result, CC(C)(C)c1ccc(S(=O)(=O)N2Cc3ccc(C(F)(F)F)nc3Nc3ccc(C(C)(C)O)c(F)c32)cc1 , clearance: 1.44

Recorded result, Cc1ccc2c(c1)N(S(=O)(=O)c1ccc(C(C)(C)C)cc1)Cc1ccc(C(F)(F)F)nc1N2 , clearance: 1.44

Recorded result, CC(C)(C)c1ccc(S(=O)(=O)N2Cc3ccc(C(F)(F)F)nc3Nc3cccc(Cl)c32)cc1 , clearance: 2.76
